# Method notes: Oral bioavailability in cynomolgus monkey at 5 mg/kg via gavage administered as single dose
# Format: ADME, organism-based, Macaca fascicularis
# Experimental conditions: in vivo
Measured metric: bioavailability

input: // query bioavailability value for entry `COc1cc(C(N)=O)nc(-c2cccc(C#C[C@]3(O)CCN(C)C3=O)c2)c1`
output: > 100%

###

# Method notes: Volume of distribution in cynomolgus monkey
# Type: ADME, organism-based, Macaca fascicularis
# Experimental conditions: in vivo
Measured metric: Vd (L/kg)
Supply the numeric figure in L/kg, leaving out any unit text.

input: Find the recorded Vd belonging to `COc1cc(C(N)=O)nc(-c2cccc(C#C[C@]3(O)CCN(C)C3=O)c2)c1` and report it.
output: 1.39
